tested on: 883617-216-R-J1-PDC complex spheroid viability; experiment: Anticancer human tumor 883617-216-R-J1-PDC patient-derived bladder carcinoma cell line growth inhibition; details: second compound 0.316 µM; first compound 0.01 µM; stronger effect = lower value
metric.name: viability, T/C (%)
Numbers only, in %.

viability, T/C for CC[C@@]1(O)C(=O)OCc2c1cc1n(c2=O)Cc2cc3c(CN(C)C)c(O)ccc3nc2-1 + NC1CCC(NC2CC2c2ccccc2)CC1 is 42.6

Per the record, Nc1ncn(C2CC(O)C(CO)O2)c(=O)n1 (stereo not given) + NC1CCC(NC2CC2c2ccccc2)CC1 has viability, T/C of 115

# viability, T/C of Nc1ncn(C2CC(O)C(CO)O2)c(=O)n1 (stereo not given) + NC1CC1c1ccc(-c2cccc(O)c2)cc1 = 108

Kindly note the recorded viability, T/C for COc1cc(Nc2ncc3c(n2)-c2ccc(Cl)cc2C(c2c(F)cccc2OC)=NC3)ccc1C(=O)O + NC1CC1c1ccc(-c2cccc(O)c2)cc1 , which is 67.8

New cases:
Entry CC(C)CC(NC(=O)C(Cc1ccccc1)NC(=O)c1cnccn1)B(O)O (stereo not given) + NC1CCC(NC2CC2c2ccccc2)CC1 ; viability, T/C = 1.9

* * *

tested on: 883617-216-R-J1-PDC complex spheroid viability; experiment: Anticancer human tumor 883617-216-R-J1-PDC cell line growth inhibition; settings: curve of first compound; second compound 3.16 µM;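 also: exposure lasted seven days after three days of spheroid growth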
pIC50: −log10 of the molar value.
Binary call on pIC50: 1 from 7 upward, -1 beneath that.

Input: Quick check: does Nc1ncn(C2CC(O)C(CO)S2)c(=O)n1 (stereo unspecified) + NC1CC1c1ccc(-c2cccc(O)c2)cc1 have pIC50 greater than or equal to 7?
Output: 1

Input: hey, is pIC50 for this one >= 7? CCc1c2c(nc3ccc(O)cc13)-c1cc3c(c(=O)n1C2)COC(=O)[C@]3(O)CC + NC1CC1c1ccc(-c2cccc(O)c2)cc1
Output: 1

Input: Is reported pIC50 greater than or equal to 7 here: CC1(C)CCC(CN2CCN(c3ccc(C(=O)NS(=O)(=O)c4ccc(NCC5CCOCC5)c([N+](=O)[O-])c4)c(Oc4cnc5[nH]ccc5c4)c3)CC2)=C(c2ccc(Cl)cc2)C1 + NC1CC1c1ccc(-c2cccc(O)c2)cc1
Output: -1

Input: Determine whether measured pIC50 meets or exceeds 7 for CC1(C)CCC(CN2CCN(c3ccc(C(=O)NS(=O)(=O)c4ccc(NCC5CCOCC5)c([N+](=O)[O-])c4)c(Oc4cnc5[nH]ccc5c4)c3)CC2)=C(c2ccc(Cl)cc2)C1 + NC1CCC(NC2CC2c2ccccc2)CC1
Output: -1

Input: Test whether the molecule CC(C)CC(NC(=O)C(Cc1ccccc1)NC(=O)c1cnccn1)B(O)O (stereo unspecified) + NC1CCC(NC2CC2c2ccccc2)CC1 records pIC50 of 7 or higher.
Output: 1

Okay, next one:
Input: Evaluate CC1COCCN1c1cc(C2(S(C)(=N)=O)CC2)nc(-c2ccnc3[nH]ccc23)n1 (stereo unspecified) + NC1CC1c1ccc(-c2cccc(O)c2)cc1 : pIC50 at minimum 7?
Output: -1

* * *

test system: 883617-216-R-J1-PDC complex spheroid viability; experiment: Anticancer human tumor 883617-216-R-J1-PDC cell line growth inhibition; conditions: second compound 0.316 µM; first compound 0.00316 µM; active means viability on the fitted dose curve at most 10% of control; inactive means the rest;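 also: exposure lasted seven days after three days of spheroid growth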
Just give me one of these, please: active, inactive

Input: Which outcome was entered for the molecule Cn1ncnc1C1c2n[nH]c(=O)c3cc(F)cc(c23)NC1c1ccc(F)cc1 (configuration not stated) + NC1CCC(NC2CC2c2ccccc2)CC1 in this test?
Output: inactive

Input: # outcome recorded in this test, key = Nc1ncn(C2CC(O)C(CO)O2)c(=O)n1 (configuration not stated) + NC1CCC(NC2CC2c2ccccc2)CC1
Output: inactive

Input: Field: outcome | Entry: CC(C)CC(NC(=O)C(Cc1ccccc1)NC(=O)c1cnccn1)B(O)O (configuration not stated) + NC1CC1c1ccc(-c2cccc(O)c2)cc1
Output: active

Input: For Nc1ncn(C2CC(O)C(CO)O2)c(=O)n1 (configuration not stated) + NC1CC1c1ccc(-c2cccc(O)c2)cc1 , which call appears in the assay record?
Output: inactive

Input: Assay outcome for COc1cc(Nc2ncc3c(n2)-c2ccc(Cl)cc2C(c2c(F)cccc2OC)=NC3)ccc1C(=O)O + NC1CCC(NC2CC2c2ccccc2)CC1 : what was it?
Output: inactive

New cases:
Input: Give the logged outcome of this assay for the following molecule: CC1COCCN1c1cc(-c2ccnn2C)c2ccnc(-c3ccn[nH]3)c2n1 (configuration not stated) + NC1CC1c1ccc(-c2cccc(O)c2)cc1
Output: inactive

Input: Status in this test for O=C(C=Cn1cnc(-c2cc(C(F)(F)F)cc(C(F)(F)F)c2)n1)NNc1cnccn1 + NC1CC1c1ccc(-c2cccc(O)c2)cc1 ?
Output: inactive
